test: qHTS Assay Multiplex Screening to Identify Dual Action Probes in a Cell Model of Huntington: Cytoprotection (Protease relase)
assay_context: PC12 HttQ103 cells, Cytotox-Glo protease release, 40 h; series mostly up to 46.1 µM
Records with an inconclusive call do not appear. Activity calls are given as the source filed them. Calls follow the shape of the dose curve; as a rule, active = well fitted inhibition curve with a large enough effect; inconclusive = small, poorly fitted or top-dose-only effect, or effect the other way; inactive = flat fitted curve, though single readings scatter.
// allowed return values: yes for active, no for inactive

Completed entries (count: 5):
{"compound": "CC(=O)c1cccc(-c2csc3ncnc(Sc4nnnn4C)c23)c1", "answer_label": "yes"}
{"compound": "Cn1nnnc1Sc1ncnc2scc(I)c12", "answer_label": "yes"}
{"compound": "N#CCSc1nc2ccc(N3CCCCC3)cc2c(=O)n1Cc1ccccc1", "answer_label": "yes"}
{"compound": "NC(=O)c1sc2nccc(Nc3ccccc3)c2c1N", "answer_label": "no"}
{"compound": "Cn1nnnc1Sc1ncnc2scc(-c3ccc(-c4ccccc4)cc3)c12", "answer_label": "yes"}

Prompt line: Outcome? "Cc1noc(C)c1COC(=O)Cc1ccc(Cl)cc1"
Response line: no

Prompt line: Outcome? CC(C(=O)O)c1ccc(N2Cc3ccccc3C2=O)cc1 (stereo not drawn)
Response line: yes

Prompt line: Outcome? "CCN(Cc1ccncc1)C(=O)c1cc(Br)cc(Br)c1O"
Response line: no

Prompt line: Outcome? "Cn1nnnc1Sc1ncnc2scc(-c3ccc4c(c3)OCO4)c12"
Response line: yes

Prompt line: Outcome? "Cn1nnnc1Sc1ncnc2scc(-c3ccc([N+](=O)[O-])cc3)c12"
Response line: yes

Prompt line: Outcome? "Cn1nnnc1Sc1ncnc2scc(-c3ccccc3F)c12"
Response line: yes

Prompt line: Outcome? "CCOC(=O)c1noc(C)c1C(=O)Nc1cccc(F)c1"
Response line: yes

Prompt line: Outcome? "C[C@]12CC[C@@H]3c4ccc(OC(=O)c5ccccc5)cc4CC[C@H]3[C@@H]1CC[C@@H]2O"
Response line: no
